Quick list: EGFP object count per entry.
system tested: Cellular tumor antigen p53 (Homo sapiens) (UniProt P04637)
Sequence (P04637 whole entry, looked up): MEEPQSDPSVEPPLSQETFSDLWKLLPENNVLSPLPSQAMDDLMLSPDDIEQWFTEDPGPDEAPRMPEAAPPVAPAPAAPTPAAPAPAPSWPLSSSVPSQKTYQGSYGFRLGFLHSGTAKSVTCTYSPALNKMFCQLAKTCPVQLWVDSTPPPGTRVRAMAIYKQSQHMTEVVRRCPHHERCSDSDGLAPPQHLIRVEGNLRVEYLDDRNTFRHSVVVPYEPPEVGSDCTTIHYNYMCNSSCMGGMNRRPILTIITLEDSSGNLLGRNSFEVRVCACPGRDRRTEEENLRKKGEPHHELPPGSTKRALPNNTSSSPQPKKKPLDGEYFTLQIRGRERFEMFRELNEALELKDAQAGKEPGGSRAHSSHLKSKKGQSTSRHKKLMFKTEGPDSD
protocol text: kinase inhibitors altering GFP-p53 stability in HPV16-positive cells, imaging, known kinase inhibitor set, EGFP/DsRed ratio (AID 1053116);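 further: test concentration not given here; cells exposed to compounds for 24 h at 37 °C before reading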
experimental setup: stronger effect = higher value; measured here: GFP-p53 positive objects count
recorded metric: EGFP object count

Cn1cc(C2=C(c3c4n(c5ccccc35)CC(CN)C4)C(=O)NC2=O)c2ccccc21 (configuration not stated); 6.5
CCS(=O)(=O)c1ccc(OC)c(Nc2ncc(-c3cccc(-c4ccccc4F)c3)o2)c1; 3.5
NS(=O)(=O)c1ccc(NC2CC(c3cccc(O)c3)NN2)cc1 (configuration not stated); 5.5
COc1cc(F)c(F)cc1C(=O)c1cnc(NC2CCN(S(C)(=O)=O)CC2)nc1N; 1
Cc1ccc(NC(=O)c2ccoc2)cc1-c1ccc(C(=O)NCC2CC2)cc1; 2
O=C1Nc2ccc(I)cc2/C1=C\c1cc(Br)c(O)c(Br)c1; 1
CC(C)(CO)CNC(=O)c1ccc2[nH]c(O)c(N=Nc3ccc(S(N)(=O)=O)cc3)c2c1; 3
